t½ values, listed per item
# target.entity: T1, recombinant cynomolgus monkey PD-1 expressed with a C-terminal myc-myc-hexahistidine tag (cynomolgus monkey (Macaca fascicularis))
# T1 construct: monomeric; also called MfPD-1-MMH
# T1 chain: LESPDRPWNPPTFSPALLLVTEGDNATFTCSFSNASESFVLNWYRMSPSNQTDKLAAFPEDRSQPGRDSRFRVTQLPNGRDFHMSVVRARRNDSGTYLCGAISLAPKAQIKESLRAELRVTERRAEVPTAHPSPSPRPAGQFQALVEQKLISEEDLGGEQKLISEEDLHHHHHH
# test.name: SPR, mAb captured, 25C;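 note: rates from fitting Biacore data for PD-1 binding to anti-PD-1 antibodies with a 1:1 model, KD computed as koff/kon and t½ as ln2/(60·koff)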
Quick note: number first, unit second.

Reference set (2 entries):
[
  {
    "binder": "H2aM7798N (antibody, mouse IgG2a, V domains shown, Human variable regions, mouse IgG2a Fc; also called H2M7798N) VH: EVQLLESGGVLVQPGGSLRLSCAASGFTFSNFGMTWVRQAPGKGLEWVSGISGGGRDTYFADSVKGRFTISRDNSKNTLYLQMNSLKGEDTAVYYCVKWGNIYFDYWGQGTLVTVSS VL: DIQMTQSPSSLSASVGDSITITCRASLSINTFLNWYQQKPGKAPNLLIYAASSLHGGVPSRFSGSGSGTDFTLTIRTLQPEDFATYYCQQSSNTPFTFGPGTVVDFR",
    "t½": "29 min"
  },
  {
    "binder": "H2aM7791N (antibody, mouse IgG2a, V domains shown, Human variable regions, mouse IgG2a Fc; also called H2M7791N) VH: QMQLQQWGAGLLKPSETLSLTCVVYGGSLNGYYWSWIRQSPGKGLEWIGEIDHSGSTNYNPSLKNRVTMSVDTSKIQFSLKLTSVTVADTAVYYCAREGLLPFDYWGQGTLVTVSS VL: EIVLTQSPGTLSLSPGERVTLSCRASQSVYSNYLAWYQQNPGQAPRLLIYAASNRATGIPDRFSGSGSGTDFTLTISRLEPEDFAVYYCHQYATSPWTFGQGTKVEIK",
    "t½": "21 min"
  }
]

Lab note: next binder to report on.
Problem: Name the reported t½ value associated with the binder H1M7800N (antibody, mouse IgG1, V domains shown, Human variable regions, mouse IgG1 Fc) VH: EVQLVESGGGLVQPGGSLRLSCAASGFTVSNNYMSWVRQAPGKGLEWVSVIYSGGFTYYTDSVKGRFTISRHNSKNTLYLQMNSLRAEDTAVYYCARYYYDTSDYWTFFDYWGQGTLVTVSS VL: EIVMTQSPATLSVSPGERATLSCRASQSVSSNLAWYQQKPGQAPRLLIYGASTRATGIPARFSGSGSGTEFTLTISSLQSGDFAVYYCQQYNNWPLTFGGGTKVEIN
Result: 1.1 min
